Catalogue of solubility readings, one per entry.
assay: Solubility measurements of lipid derivatives in water, saline, ethanol and octanol; details: water, 22 °C

molecule: CCCCCCCCCCCCCCCCCC(=O)OC[C@H](COP(=O)([O-])OCC[N+](C)(C)C)OC(=O)CCNC(=O)C(C)c1ccc(CC(C)C)cc1 (stereo partly drawn)
solubility: 200 µg/mL
//
molecule: CCCCCCCCCCCCCCCCCC(=O)OC[C@H](COP(=O)([O-])OCC[N+](C)(C)C)OC(=O)CCNC(=O)Cc1c(C)n(C(=O)c2ccc(Cl)cc2)c2ccc(OC)cc12
solubility: < 900 µg/mL

Kindly review the next molecule as well.
Can you share its solubility? I mean this molecule: "CCCCCCCCCCCCCCCCCC(=O)OC[C@H](COP(=O)([O-])OCC[N+](C)(C)C)OC(=O)CCCCCCCCCCCNC(=O)Cc1ccccc1Nc1c(Cl)cccc1Cl"
< 1 µg/mL
